- system.under.test: Ba/F3 cells with EGFR exon 20 ASV Ins V769_D770 (Homo sapiens, UniProt P00533, INS769ASV)
- Sequence (P00533 with tags, fused parts or gaps INS769ASV): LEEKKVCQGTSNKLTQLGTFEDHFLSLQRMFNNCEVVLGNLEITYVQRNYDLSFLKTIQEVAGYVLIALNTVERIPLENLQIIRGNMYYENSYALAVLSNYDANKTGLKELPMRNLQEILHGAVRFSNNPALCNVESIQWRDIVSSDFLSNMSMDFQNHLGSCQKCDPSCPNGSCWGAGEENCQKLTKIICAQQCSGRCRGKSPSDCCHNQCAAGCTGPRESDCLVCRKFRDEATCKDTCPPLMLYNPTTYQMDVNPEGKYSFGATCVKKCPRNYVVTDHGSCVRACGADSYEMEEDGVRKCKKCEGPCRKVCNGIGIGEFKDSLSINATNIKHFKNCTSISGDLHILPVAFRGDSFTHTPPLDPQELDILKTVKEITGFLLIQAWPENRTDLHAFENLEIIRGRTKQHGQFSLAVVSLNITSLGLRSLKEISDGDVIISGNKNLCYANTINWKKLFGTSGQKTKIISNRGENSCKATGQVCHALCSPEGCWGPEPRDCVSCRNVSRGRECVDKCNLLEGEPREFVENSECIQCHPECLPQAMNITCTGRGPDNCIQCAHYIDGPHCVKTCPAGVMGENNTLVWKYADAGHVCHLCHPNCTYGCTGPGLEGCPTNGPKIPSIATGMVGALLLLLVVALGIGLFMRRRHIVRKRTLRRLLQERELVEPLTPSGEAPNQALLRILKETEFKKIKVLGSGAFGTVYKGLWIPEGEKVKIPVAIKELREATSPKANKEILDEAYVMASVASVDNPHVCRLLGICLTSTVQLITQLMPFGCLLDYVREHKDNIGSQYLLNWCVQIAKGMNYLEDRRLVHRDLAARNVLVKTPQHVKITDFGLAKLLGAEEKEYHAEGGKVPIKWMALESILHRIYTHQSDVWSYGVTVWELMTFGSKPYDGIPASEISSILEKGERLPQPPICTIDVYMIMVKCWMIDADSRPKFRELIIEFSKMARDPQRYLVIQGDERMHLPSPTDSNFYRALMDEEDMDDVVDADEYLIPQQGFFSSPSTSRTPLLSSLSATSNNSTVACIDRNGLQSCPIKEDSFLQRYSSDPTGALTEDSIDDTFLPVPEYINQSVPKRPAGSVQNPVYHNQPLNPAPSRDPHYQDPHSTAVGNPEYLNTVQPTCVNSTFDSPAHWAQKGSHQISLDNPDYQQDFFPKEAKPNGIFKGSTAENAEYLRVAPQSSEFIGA
- experiment.description: EGFR activity: Ba/F3 cell viability (CellTiter-Glo, 72 h), EGFR exon 20 ASV insertion
- experimental.context: EGFR exon 20 ASV Ins V769_D770, cell viability, read-out: BaF3 ASV IC50
outcome.measure: IC50

## Input # query: IC50 of entry C=CC(=O)N1CCC[C@]1(C)C#Cc1cnccc1-c1[nH]c2c(c1Nc1cccc(F)c1CC)C(=O)NCC2
## Output < 100 nM

## Input # input compound: COC(C)C#Cc1cnccc1-c1[nH]c2c(c1Nc1cccc(F)c1C)C(=O)NCC2 (centres unmarked) ; wanted: its IC50
## Output 100 to 1000 nM

## Input Give its IC50 value. Item: C=CC(=O)N1CCC[C@]1(C)C#Cc1cnccc1-c1[nH]c2c(c1Nc1cc(F)cc(Cl)c1OC)C(=O)NCC2
## Output < 100 nM

## Input // lookup IC50 for COc1c(Cl)cccc1Nc1c(-c2ccncc2C#CC23CC(CN2C(=O)/C=C/CN(C)C)C3)[nH]c2c1C(=O)NCC2
## Output < 100 nM

## Input Requested read-out: IC50. Entry: C=CC(=O)N1CCC[C@@H]1C#Cc1cnccc1-c1[nH]c2c(c1Nc1cccc(F)c1OC)C(=O)NCC2 [Compound 147b]
## Output < 100 nM

## Input For the compound shown here, COc1c(F)cccc1Nc1c(-c2ccncc2OCc2ncco2)[nH]c2c1C(=O)NCC2 , give the reported IC50.
## Output 100 to 1000 nM

## Input Return reported IC50; argument: CC#CC(=O)N1CC[C@@H]1C#Cc1cnccc1-c1[nH]c2c(c1Nc1cccc(Cl)c1OC)C(=O)NCC2
## Output < 100 nM

## Input Reported IC50, compound COc1c(Cl)cccc1Nc1c(-c2ccncc2C#CC2CCC2)[nH]c2c1C(=O)NCC2 : ____
## Output < 100 nM
